Reference source for all entries: PubChem BioAssay (NCI)

# System: HS 578T breast
# assay comment: NCI-60 one-dose screen, 48 h (100 = growth as untreated, 0 = no growth, -100 = all killed)
# study conditions: 10 µM
This is part of a sample that, as a whole, favours compounds with a hit. Of some 83,000 tested, about 20% had one in any assay.
Recorded growth for the following compounds
Answer with a number only, understood to be in %.

compound	experimental system	unit of measure	growth
COc1ccc(-c2nc3ccc(Cc4ccc5nc(-c6ccc(OC)cc6)[nH]c5c4)cc3[nH]2)cc1	HS 578T breast	%	73.1

Now for a further compound.
Under HS 578T breast: report growth of O=C(/C=C/c1cccc([N+](=O)[O-])c1)c1ccc(Nc2nc(N3CCCCC3)nc(N3CCCCC3)n2)cc1 . 103

###

# Tested on: LOX IMVI melanoma
# assay comment: NCI-60 one-dose screen, 48 h (100 = growth as untreated, 0 = no growth, -100 = all killed)
# study conditions: 10 µM unless noted
Compounds without any hit were thinned out: in the full panel of roughly 83,000, 20% have a hit. Active and inactive are the calls of the source. How the source made its calls: active means growth percent below 10; inactive means the rest.
parameter: growth

Sample records with growth:
> print(dat)
                                   compound  experimental.system  parameter            result
1  CCOC(CN1CCN(CC(C)C(=O)c2ccccc2)CC1)c1ccccc1 (stereo unspecified)    LOX IMVI melanoma     growth   101% (inactive)
2  COc1cc(C2CC(c3cccc(Nc4ccnc5cc(Cl)ccc45)c3)=NN2c2ccccc2)cc(OC)c1OC (stereo unspecified)    LOX IMVI melanoma     growth  46.1% (inactive)
3  O=C(NC1CC1)c1ccc(-c2nc3ccc4[nH]ncc4c3c3c2CCCC3)cc1    LOX IMVI melanoma     growth  38.7% (inactive)
4  COc1cc(-c2nc(-c3nc4cc(C(=O)c5ccccc5)ccc4[nH]3)cc3c2[nH]c2ccccc23)cc(OC)c1OC    LOX IMVI melanoma     growth  85.2% (inactive)

// switching to the query compound
Look up growth of COc1ccc2cc(-c3nc(C)c(C(C)=O)c(-c4ccc(C)cc4)n3)ccc2c1 and report it. 101% (inactive)

###

# Tested on: OVCAR-4 ovarian
# assay comment: NCI-60 one-dose screen, 48 h
# study conditions: 10 µM unless noted
Compounds without any hit were thinned out: in the full panel of roughly 83,000, 20% have a hit. Activity calls are given as the source filed them. Rule for the calls: active = growth percent below 10; inactive = the rest.
Lab note: assign the record to one of active, inactive

> print(dat)
                                   molecule  experimental.system     class
1  O=C(NC1CC1)c1ccc(-c2nc3ccc4[nH]ncc4c3c3c2CCCC3)cc1      OVCAR-4 ovarian  inactive
2  C[C@]12CCc3nc(Nc4ccc(O)cc4)sc3C1=CC[C@@H]1[C@@H]2CC[C@]2(C)/C(=N/NC(N)=S)CC[C@@H]12      OVCAR-4 ovarian    active
3  CC1=C(C(=O)Nc2ccc(F)cc2)C(c2ccccc2)C2=C(CC(C)(C)CC2=O)N1 (stereo not given)      OVCAR-4 ovarian  inactive
4  O=C(Nc1ccccc1)C(CCCCN1C(=O)c2ccccc2C1=O)N1C(=O)c2ccccc2C1=O (stereo not given)      OVCAR-4 ovarian  inactive

Please turn your attention to the following entry.
# fetch the recorded call for NC(=O)c1noc(C(=O)c2ccccc2)c1N here inactive
